study_system: K179A (Lys179 mutant of H1 receptor to alanine) (Homo sapiens, UniProt P35367, K179A)
Construct: 3xHA (three copies of hemagglutinin YPYDVPDYA) (N); membrane preparations
Sequence (P35367 whole entry K179A): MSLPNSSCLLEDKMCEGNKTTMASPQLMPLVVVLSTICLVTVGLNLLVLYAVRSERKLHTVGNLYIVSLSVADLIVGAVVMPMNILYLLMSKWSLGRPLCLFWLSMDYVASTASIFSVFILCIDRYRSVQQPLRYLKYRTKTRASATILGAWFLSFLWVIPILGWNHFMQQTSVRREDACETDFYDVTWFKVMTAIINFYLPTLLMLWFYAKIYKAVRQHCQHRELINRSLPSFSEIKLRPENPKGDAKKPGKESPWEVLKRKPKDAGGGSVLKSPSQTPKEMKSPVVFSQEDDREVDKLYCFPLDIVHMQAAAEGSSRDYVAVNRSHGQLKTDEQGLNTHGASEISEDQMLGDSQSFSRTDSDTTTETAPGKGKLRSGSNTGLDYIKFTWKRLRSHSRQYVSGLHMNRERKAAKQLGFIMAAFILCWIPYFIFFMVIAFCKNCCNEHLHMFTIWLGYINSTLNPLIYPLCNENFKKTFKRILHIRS
assay_summary: [3H]mepyramine displacement binding, membranes of CHO cells expressing K179A mutant
assay_readout: Ki (nM)
Response body: numeric value in nM, unit text excluded.

Ki in this record for CCOCCn1c(C2CCN(CCc3ccc(C(C)(C)C(=O)O)cc3)CC2)nc2ccccc21 : 5.2

---

study_system: K179A + K191A (both Lys179 and Lys191 mutant of H1 receptor to alanine) (Homo sapiens, UniProt P35367, K179A/K191A)
Construct: 3xHA (three copies of hemagglutinin YPYDVPDYA) (N); membrane preparations
Sequence (P35367 whole entry K179A/K191A): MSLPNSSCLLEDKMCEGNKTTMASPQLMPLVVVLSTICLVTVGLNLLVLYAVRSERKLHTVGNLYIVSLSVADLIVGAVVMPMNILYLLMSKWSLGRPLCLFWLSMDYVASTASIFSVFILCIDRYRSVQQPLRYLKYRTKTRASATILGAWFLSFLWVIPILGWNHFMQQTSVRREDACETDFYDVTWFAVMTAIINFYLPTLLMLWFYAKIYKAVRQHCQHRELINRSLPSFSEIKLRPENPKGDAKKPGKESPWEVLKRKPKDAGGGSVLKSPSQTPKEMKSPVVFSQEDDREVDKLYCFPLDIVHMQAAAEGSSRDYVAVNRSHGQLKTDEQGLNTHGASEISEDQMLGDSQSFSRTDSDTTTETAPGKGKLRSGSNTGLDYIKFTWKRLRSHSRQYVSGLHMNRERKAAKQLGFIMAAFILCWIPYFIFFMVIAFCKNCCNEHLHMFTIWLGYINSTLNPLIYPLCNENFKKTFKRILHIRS
assay_summary: [3H]mepyramine displacement binding, membranes of CHO cells expressing K179A + K191A mutant
assay_readout: pKi
Units for pKi: none; it is -log10 of a concentration expressed in mol/L.

pKi in this record for CCOCCn1c(C2CCN(CCc3ccc(C(C)(C)C(=O)O)cc3)CC2)nc2ccccc21 : 8.10

---

study_system: K191A (Lys191 mutant of H1 receptor to alanine) (Homo sapiens, UniProt P35367, K191A)
Construct: 3xHA (three copies of hemagglutinin YPYDVPDYA) (N); membrane preparations
Sequence (P35367 whole entry K191A): as the sequence (P35367 whole entry K179A/K191A) above, with A179K counted along it
assay_summary: [3H]mepyramine displacement binding, membranes of CHO cells expressing K191A mutant
assay_readout: Ki (nM)
Response body: numeric value in nM, unit text excluded.

Ki in this record for CCOCCn1c(C2CCN(CCc3ccc(C(C)(C)C(=O)O)cc3)CC2)nc2ccccc21 [bilastine, Bilastine] : 2.57
